Hey, just so you know, these numbers are from patent US20160016951A1.

The entries below are paired with their reported IC50.
- subject.of.test: CDK8 (CDK8/CycC) (Homo sapiens, UniProt P49336)
- Construct: purchased Invitrogen PV4402
- Sequence (P49336 whole entry): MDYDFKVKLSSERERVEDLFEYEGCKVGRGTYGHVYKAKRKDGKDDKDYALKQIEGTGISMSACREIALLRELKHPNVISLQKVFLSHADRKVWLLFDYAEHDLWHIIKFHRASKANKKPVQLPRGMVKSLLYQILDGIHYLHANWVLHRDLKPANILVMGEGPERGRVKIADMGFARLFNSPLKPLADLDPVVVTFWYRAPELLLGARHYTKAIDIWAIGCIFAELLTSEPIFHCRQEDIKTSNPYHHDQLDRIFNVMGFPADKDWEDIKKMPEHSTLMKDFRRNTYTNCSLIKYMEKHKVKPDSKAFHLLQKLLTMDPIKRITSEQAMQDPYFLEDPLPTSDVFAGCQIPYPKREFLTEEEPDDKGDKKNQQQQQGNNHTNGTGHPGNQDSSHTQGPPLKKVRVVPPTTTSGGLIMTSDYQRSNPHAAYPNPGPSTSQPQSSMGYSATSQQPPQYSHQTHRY
- Sequence (P24863 whole entry partner): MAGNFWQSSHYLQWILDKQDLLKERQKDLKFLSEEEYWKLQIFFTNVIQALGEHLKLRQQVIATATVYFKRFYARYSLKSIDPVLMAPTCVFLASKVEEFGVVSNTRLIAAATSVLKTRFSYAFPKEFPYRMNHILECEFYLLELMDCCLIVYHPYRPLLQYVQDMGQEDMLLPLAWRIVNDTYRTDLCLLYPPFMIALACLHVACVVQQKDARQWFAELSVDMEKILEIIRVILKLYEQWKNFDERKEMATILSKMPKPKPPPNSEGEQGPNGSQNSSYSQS
- assay.info: FRET based Lanthascreen binding competition assay
- condition.description: 5 nM CDK8/CycC, 10 nM Alexa647-Tracer, 1% DMSO, 60 min at RT; read-out: IC50 CDK8 binding

CN(c1ccc2cncc(-c3ccc(-c4cnn(C)c4)cc3)c2c1)S(C)(=O)=O [Compound 139] ... 10 to 100 nM
O=C1Cc2ccc(-c3cncc4ccc(C(=O)N5CC(F)(F)C5)cc34)cc2N1 [Compound 146] ... 10 to 100 nM
Cc1cnc(N)c2ccc(C(=O)N3CCC[C@H]3c3ccc(Cl)cc3)nc12 [Compound 88] ... 10 to 100 nM
CN(O)C(=O)c1ccc2cncc(-c3ccc(-c4cnn(C)c4)cc3)c2n1 [Compound 76] ... < 10 nM
Cn1cc(-c2ccc(-c3cncc4ccccc34)cc2)cn1 [Compound 109] ... 10 to 100 nM
COC1CN(C(=O)c2ccc3cncc(-c4ccc(-c5cnn(CC(C)(C)O)c5)cc4)c3c2)C1 [Compound 131] ... 10 to 100 nM

Given the molecule Cn1cc(-c2ccc(-c3cncc4ccc(S(C)(=N)=O)cc34)cc2)cn1 (centres unmarked) [Compound 190] and test system CDK8 (CDK8/CycC) (Homo sapiens, UniProt P49336), the measured IC50 is 10 to 100 nM

With CDK8 (CDK8/CycC) (Homo sapiens, UniProt P49336) as the test system, Cn1cc(-c2ccc(-c3cncc4ccc(O)nc34)cc2)cn1 [Compound 79] showed IC50 of 501 to 1000 nM

Nc1nccc2cc(C(=O)N3CCC[C@H]3c3ccc(Cl)cc3)ccc12 [Compound 137] on CDK8 (CDK8/CycC) (Homo sapiens, UniProt P49336) gives IC50 = 10 to 100 nM

COC1CN(C(=O)c2ccc3cncc(-c4ccc(-c5cn(C)nc5C(F)(F)F)cc4)c3n2)C1 [Compound 49] tested on CDK8 (CDK8/CycC) (Homo sapiens, UniProt P49336) gave IC50: 10 to 100 nM

----------
- subject.of.test: CDK8 (CDK8/CycC) (Homo sapiens)
- Construct: purchased Invitrogen PV4402
- assay.info: FRET based Lanthascreen binding competition assay
- condition.description: 5 nM CDK8/CycC, 10 nM Alexa647-Tracer, 1% DMSO, 60 min at RT; read-out: IC50 CDK8 binding
pIC50: −log10 of the molar value.
readout.type: pIC50

COC1CN(C(=O)c2ccc3cncc(-c4ccc5nn(CC(C)(C)O)cc5c4)c3n2)C1 ... > 8.00
Cc1cncc2ccc(C(=O)N[C@@H](C)c3ccccc3)nc12 ... 6.30 to 7.00
Cn1cc(-c2ccc(-c3cncc4ccc(C(=O)N5CC(C)(F)C5)nc34)cc2)cn1 ... > 8.00
N#Cc1ccc2cncc(-c3ccc4c(c3)NC(=O)C4)c2c1 ... 7.00 to 8.00
CC(C)(O)Cn1cc(-c2ccc(-c3cncc4ccc(C(N)=O)cc34)cc2)cn1 ... > 8.00
C[C@@H](NC(=O)c1ccc2cncc(Br)c2n1)c1ccccc1 ... 7.00 to 8.00

pIC50 reported for this compound CN1c2ccc(-c3cncc4ccc(C(=O)NCCN)nc34)cc2CS1(=O)=O : > 8.00

// sample COC1CN(C(=O)c2ccc3c(N)ncc(-c4ccc5c(c4)CCC(=O)N5C)c3c2)C1 , its pIC50 was 6.30 to 7.00

The compound CNC(=O)c1nc2c(-c3ccc4c(c3)CS(=O)(=O)N4C)cncc2cc1C showed pIC50 equal to > 8.00

----------
- subject.of.test: CDK8 (CDK8/CycC) (Homo sapiens)
- Construct: purchased Invitrogen PV4402
- assay.info: FRET based Lanthascreen binding competition assay
- condition.description: 5 nM CDK8/CycC, 10 nM Alexa647-Tracer, 1% DMSO, 60 min at RT; read-out: IC50 CDK8 binding
readout.type: IC50

Cn1cc(-c2ccc(-c3cncc4ccc(N5CCNC(=O)C5)cc34)cc2)cn1 [Compound 116] ... 10 to 100 nM
CN1C(=O)CCc2cc(-c3cnc(N)c4ccc(C(=O)N5CC(F)(F)C5)cc34)ccc21 [Compound 172] ... 101 to 500 nM
Nc1ncc(-c2ccc3c(c2)CS(=O)(=O)N3)c2cc(C(=O)N3CCC3)ccc12 [Compound 194] ... < 10 nM
CNC(=O)c1ccc2c(N)ncc(-c3ccc4c(c3)CS(=O)(=O)N4C)c2n1 [Compound 32] ... < 10 nM
Cn1cc(-c2ccc(-c3cncc4ccc(-c5nnnn5C)cc34)cc2)cn1 [Compound 123] ... 10 to 100 nM
O=C(c1ccc2cncc(Br)c2n1)N1CCC[C@H]1c1ccc(Br)cc1 [Compound 89] ... 10 to 100 nM

Consider the record given below.
Value of IC50 reported for the compound Cc1cncc2ccc(C(=O)N3CCC[C@H]3c3ccc(Br)cc3)nc12 [Compound 92] is < 10 nM

----------
Entries annotated with measured IC50
- subject.of.test: CDK8 (CDK8/CycC) (Homo sapiens)
- Construct: purchased Invitrogen PV4402
- assay.info: FRET based Lanthascreen binding competition assay
- condition.description: 5 nM CDK8/CycC, 10 nM Alexa647-Tracer, 1% DMSO, 60 min at RT; read-out: IC50 CDK8 binding

Cn1cc(-c2ccc(-c3cncc4ccc(C(N)=O)nc34)c(F)c2)cn1 ... < 10 nM
Cc1ncc(-c2ccc(-c3cnn(C)c3)cc2)c2nc(C(N)=O)ccc12 ... 101 to 500 nM
Cn1cc(-c2ccc(-c3cncc4ccc(C(=O)NCc5ccc(C(F)(F)F)cc5)nc34)cc2)cn1 ... 10 to 100 nM
Cc1nc(-c2ccc(-c3cnc(N)c4ccc(C(=O)N5CC(F)(F)C5)cc34)cc2)cn1C ... 10 to 100 nM
CNc1ccc2cncc(-c3ccc(-c4cnn(C)c4)cc3)c2n1 ... 101 to 500 nM

# IC50 measured on CDK8 (CDK8/CycC) (Homo sapiens) for item Cn1cc(-c2ccc(-c3cncc4ccc(NS(C)(=O)=O)cc34)cc2)cn1 = < 10 nM

Tested on CDK8 (CDK8/CycC) (Homo sapiens): CN(C)C(=O)c1ccc2cncc(-c3ccc4c(c3)CS(=O)(=O)N4)c2n1 . Observed IC50: 10 to 100 nM

Form field, IC50 with CDK8 (CDK8/CycC) (Homo sapiens), item Cn1cc(-c2ccc(-c3cnc(N)c4ccc(C(=O)N5CCC(F)(F)C5)cc34)cc2)cn1 : 10 to 100 nM

----------
- subject.of.test: CDK8 (CDK8/CycC) (Homo sapiens)
- Construct: purchased Invitrogen PV4402
- assay.info: FRET based Lanthascreen binding competition assay
- condition.description: 5 nM CDK8/CycC, 10 nM Alexa647-Tracer, 1% DMSO, 60 min at RT; read-out: IC50 CDK8 binding
readout.type: IC50

A selection of reference data follows.
Cc1nc(-c2ccc(-c3cncc4ccc(C(=O)N5CC(F)(F)C5)cc34)cc2)cn1C ... 10 to 100 nM
CN1C(=O)Cc2cc(-c3cnc(N)c4ccc(C(=O)N5CC(F)(F)C5)cc34)ccc21 ... 10 to 100 nM
Cn1cc(-c2ccc(-c3c(Cl)ncc4ccc(C(N)=O)nc34)cc2)cn1 ... 101 to 500 nM
COCCN(c1ccc2cncc(-c3ccc(-c4cnn(C)c4)cc3)c2c1)S(C)(=O)=O ... 101 to 500 nM
COC1CN(C(=O)c2ccc3c(N)ncc(-c4ccc(-c5ccn(C)n5)cc4)c3n2)C1 ... 101 to 500 nM
COC1CN(C(=O)c2ccc3c(N)ncc(-c4ccc5c(c4)CC(=O)N5C)c3c2)C1 ... 10 to 100 nM
O=C(c1ccc2cncc(-c3ccc4c(c3)CS(=O)(=O)N4)c2c1)N1CCC1 ... < 10 nM

Shift focus to the following entry.
Form: compound = CN1c2ccc(-c3cncc4ccc(C(=O)NC5CC5)nc34)cc2CS1(=O)=O ; IC50 = < 10 nM

----------
- subject.of.test: CDK8 (CDK8/CycC) (Homo sapiens)
- Construct: purchased Invitrogen PV4402
- assay.info: FRET based Lanthascreen binding competition assay
- condition.description: 5 nM CDK8/CycC, 10 nM Alexa647-Tracer, 1% DMSO, 60 min at RT; read-out: IC50 CDK8 binding
readout.type: IC50

# example entries with known answers
CN1C(=O)CCc2cc(-c3cncc4ccc(C(=O)N5CC(F)(F)C5)cc34)ccc21 [Compound 158] ... 10 to 100 nM
CN1c2ccc(-c3cncc4ccc(CN)nc34)cc2CS1(=O)=O [Compound 71] ... 101 to 500 nM
COC1CN(C(=O)c2ccc3c(N)ncc(-c4ccc(-c5cnn(C(C)C)c5)cc4)c3n2)C1 [Compound 161] ... 10 to 100 nM
CN1C(=O)Cc2ccc(-c3cncc4ccc(C(=O)N5CC(F)(F)C5)cc34)cc21 [Compound 163] ... 10 to 100 nM
CC(=O)NCc1ccc2cncc(-c3ccc4c(c3)CS(=O)(=O)N4C)c2n1 [Compound 38] ... 10 to 100 nM
CC(C)(O)Cn1cc(-c2ccc(-c3cncc4ccc(C(=O)N5CCCC5)cc34)cc2)cn1 [Compound 134] ... 10 to 100 nM
CC(C)(O)Cn1cc(-c2ccc(-c3cncc4ccc(C(=O)N5CCOCC5)cc34)cc2)cn1 [Compound 135] ... 10 to 100 nM
COC1CN(C(=O)c2ccc3cncc(-c4ccc5c(cnn5CC(C)(C)O)c4)c3c2)C1 [Compound 132] ... 101 to 500 nM
Cn1cc(-c2ccc(-c3cncc4ccc(C(=O)N5CCC(F)(F)CC5)nc34)cc2)cn1 [Compound 35] ... < 10 nM
COC1CN(C(=O)c2ccc3cncc(-c4ccc(-c5ccn(C)n5)cc4)c3n2)C1 [Compound 156] ... 10 to 100 nM

Tested on CDK8 (CDK8/CycC) (Homo sapiens): Cn1cc(-c2ccc(-c3cncc4ccc(C#N)cc34)cc2)cn1 [Compound 118] . Observed IC50: 10 to 100 nM

The compound O=C(c1ccc2cncc(Br)c2n1)N1CCC[C@H]1c1ccc(Cl)cc1 [Compound 34] on CDK8 (CDK8/CycC) (Homo sapiens): IC50 was < 10 nM

Given the compound CC(C)(O)Cn1cc2cc(-c3cncc4ccc(NS(C)(=O)=O)cc34)ccc2n1 [Compound 151] and test system CDK8 (CDK8/CycC) (Homo sapiens), the measured IC50 is < 10 nM

# IC50 measured on CDK8 (CDK8/CycC) (Homo sapiens) for item Cn1cc(-c2ccc(-c3cncc4ccc(C(=O)N5CCC5)cc34)cc2)cn1 [Compound 181] = < 10 nM

Item: Cc1cc2cncc(-c3ccc4c(c3)CS(=O)(=O)N4C)c2nc1C(=O)NC1CC1 [Compound 28] | System: CDK8 (CDK8/CycC) (Homo sapiens) | IC50: < 10 nM

Lab note: compound CNC(=O)c1ccc2cncc(-c3ccc(-c4cnn(C)c4)cc3F)c2n1 [Compound 17] tested on CDK8 (CDK8/CycC) (Homo sapiens); recorded IC50 was < 10 nM

Known value: CDK8 (CDK8/CycC) (Homo sapiens) IC50 of the compound Cn1cc(-c2ccc(-c3cncc4ccc(S(C)(=O)=O)cc34)cc2)cn1 [Compound 189] equals 10 to 100 nM
